Assay: Cytotoxicity against human MCF-10A cells assessed as cell growth inhibition incubated for 72 hrs by MTT assay
Observable: IC50 at 72 h (µM)
The answer is to be given in µM; state only the numeric part.

So, Cc1ccc(C(=O)Nc2ccc(-n3c(C)nc4c(cnn4-c4ccccc4)c3=O)cc2)cc1 ? Its IC50 at 72 h was 58.2

So, Cc1nc2c(cnn2-c2ccccc2)c(=O)n1-c1ccc(NC(=O)c2ccc(Cl)cc2)cc1 ? Its IC50 at 72 h was 34.6

So, Cc1nc2c(cnn2-c2ccccc2)c(=O)n1-c1ccc(NC(=O)c2ccc(F)cc2)cc1 ? Its IC50 at 72 h was 22.8

So, Cc1nc2c(cnn2-c2ccccc2)c(=O)n1-c1ccc(NC(=O)c2ccccc2)cc1 ? Its IC50 at 72 h was 55.5

* * *

Lab note: IC50 readings collected with Vascular endothelial growth factor receptor 2 (Homo sapiens, UniProt P35968) for the following compounds.
Sequence (P35968 whole entry): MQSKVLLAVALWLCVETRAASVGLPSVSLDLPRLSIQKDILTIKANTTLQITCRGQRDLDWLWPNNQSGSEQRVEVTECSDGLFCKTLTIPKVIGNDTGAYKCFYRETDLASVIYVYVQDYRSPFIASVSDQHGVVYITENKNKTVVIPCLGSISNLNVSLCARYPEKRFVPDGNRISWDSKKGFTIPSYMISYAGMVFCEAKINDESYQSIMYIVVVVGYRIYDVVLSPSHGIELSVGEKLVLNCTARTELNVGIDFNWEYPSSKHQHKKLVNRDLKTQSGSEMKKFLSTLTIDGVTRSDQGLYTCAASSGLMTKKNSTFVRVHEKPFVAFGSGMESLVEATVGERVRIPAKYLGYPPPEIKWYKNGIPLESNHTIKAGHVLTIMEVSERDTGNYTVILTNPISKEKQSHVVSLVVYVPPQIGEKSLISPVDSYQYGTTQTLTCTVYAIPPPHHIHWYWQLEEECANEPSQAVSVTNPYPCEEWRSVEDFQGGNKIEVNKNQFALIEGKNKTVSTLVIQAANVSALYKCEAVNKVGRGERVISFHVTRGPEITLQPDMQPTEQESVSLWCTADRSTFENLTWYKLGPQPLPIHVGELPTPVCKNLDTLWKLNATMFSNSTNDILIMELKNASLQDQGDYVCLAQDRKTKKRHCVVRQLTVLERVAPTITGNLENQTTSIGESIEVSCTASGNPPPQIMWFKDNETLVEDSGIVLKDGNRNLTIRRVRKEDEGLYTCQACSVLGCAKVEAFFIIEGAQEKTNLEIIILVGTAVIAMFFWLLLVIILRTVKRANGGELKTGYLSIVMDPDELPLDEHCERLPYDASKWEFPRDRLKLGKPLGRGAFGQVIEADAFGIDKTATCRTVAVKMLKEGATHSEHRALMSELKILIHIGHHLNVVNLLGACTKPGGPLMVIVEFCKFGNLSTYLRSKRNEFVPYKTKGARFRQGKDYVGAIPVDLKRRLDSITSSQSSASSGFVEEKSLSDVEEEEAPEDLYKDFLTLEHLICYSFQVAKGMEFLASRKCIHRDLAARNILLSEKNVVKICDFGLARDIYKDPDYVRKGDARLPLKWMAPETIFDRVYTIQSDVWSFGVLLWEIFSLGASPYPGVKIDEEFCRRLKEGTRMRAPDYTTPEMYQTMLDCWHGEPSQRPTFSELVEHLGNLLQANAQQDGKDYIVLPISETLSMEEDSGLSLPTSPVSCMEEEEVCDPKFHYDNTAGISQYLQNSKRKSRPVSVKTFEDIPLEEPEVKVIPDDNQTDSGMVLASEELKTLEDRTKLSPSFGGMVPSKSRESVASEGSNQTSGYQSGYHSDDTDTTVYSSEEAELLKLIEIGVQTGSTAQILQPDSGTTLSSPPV
The answer is to be given in nM; state only the numeric part.

So, Cc1nc2c(cnn2-c2ccccc2)c(=O)n1-c1ccc(NC(=O)c2ccccc2)cc1 ? Its IC50 was 178

So, Cc1nc2c(cnn2-c2ccccc2)c(=O)n1-c1ccc(NC(=O)c2ccc(F)cc2)cc1 ? Its IC50 was 63

So, Cc1ccc(C(=O)Nc2ccc(-n3c(C)nc4c(cnn4-c4ccccc4)c3=O)cc2)cc1 ? Its IC50 was 261

So, Cc1nc2c(cnn2-c2ccccc2)c(=O)n1-c1ccc(NC(=O)c2ccc(Cl)cc2)cc1 ? Its IC50 was 200

* * *

System: MDA-MB-468
Assay: Antiproliferative activity against human MDA-MB-468 cells assessed as cell growth inhibition at 10 uM incubated for 48 hrs by SRB assay relative to control
Format: functional
Conditions: read-out: GI
Please go through the items and note down their inhibition of growth at 10 µM.

So, Cc1nc2c(cnn2-c2ccccc2)c(=O)n1-c1ccc(NC(=O)c2ccc([N+](=O)[O-])cc2)cc1 ? Its inhibition of growth at 10 µM was 68.6%

So, COc1ccc(/C=C/C(=O)c2ccc(-n3c(C)nc4c(cnn4-c4ccccc4)c3=O)cc2)cc1 ? Its inhibition of growth at 10 µM was 88.7%

So, Cc1nc2c(cnn2-c2ccccc2)c(=O)n1-c1ccc(NC(=O)c2ccccc2)cc1 ? Its inhibition of growth at 10 µM was 71%

So, Cc1nc2c(cnn2-c2ccccc2)c(=O)n1-c1ccc(NC(=O)c2ccc(Cl)cc2)cc1 ? Its inhibition of growth at 10 µM was 84.3%

So, Cc1nc2c(cnn2-c2ccccc2)c(=O)n1-c1ccc(NC(=O)c2ccco2)cc1 ? Its inhibition of growth at 10 µM was 37.3%

So, Cc1nc2c(cnn2-c2ccccc2)c(=O)n1-c1ccc(NC(=O)c2ccc(F)cc2)cc1 ? Its inhibition of growth at 10 µM was 85.5%

So, Cc1nc2c(cnn2-c2ccccc2)c(=O)n1-c1ccc(N2C(=O)c3ccccc3C2=O)cc1 ? Its inhibition of growth at 10 µM was < 15%

So, Cc1nc2c(cnn2-c2ccccc2)c(=O)n1-c1ccc(N)cc1 ? Its inhibition of growth at 10 µM was 62.4%

So, Cc1ccc(C(=O)Nc2ccc(-n3c(C)nc4c(cnn4-c4ccccc4)c3=O)cc2)cc1 ? Its inhibition of growth at 10 µM was 78.9%

So, Cc1nc2c(cnn2-c2ccccc2)c(=O)n1-c1ccc(/N=C2\C(=O)Nc3ccccc32)cc1 ? Its inhibition of growth at 10 µM was 51.4%

So, CC(=O)Nc1ccc(-n2c(C)nc3c(cnn3-c3ccccc3)c2=O)cc1 ? Its inhibition of growth at 10 µM was < 15%

So, Cc1nc2c(cnn2-c2ccccc2)c(=O)n1-c1ccc(N2C(=O)C=CC2=O)cc1 ? Its inhibition of growth at 10 µM was 18.6%
